- System: acyl-coenzyme A: cholesterol acyltransferase (ACAT)
- assay details: inhibition of acyl-coenzyme A: cholesterol acyltransferase (intracellular cholesterol esterification, procedure of Ross et al.)
- Assay type: cell-based
- test parameters: read-out: ACAT IC50
- Method: 1. The ability of the compounds of this invention to inhibit acyl-coenzyme A: cholesterol acyltransferase was established by initially showing that they inhibited intracellular cholesterol esterification by subjecting them to the standard experimental test procedure of Ross et al., J. Biol. Chem. 259, 814 (1984). The results are reported in the following table, where available, in terms of the percent inhibition at 25 μM and the IC50 (μM).
Assign IC50 to each entry below.
Numbers only, in nM.

Please review the entries below; each comes with its answer.
O=C(NCCCCCCOC(=O)N1CCC2(CCCC2)CC1)OC1CCN(C(=O)Oc2ccc(Oc3ccccc3)cc2)CC1    1720
CCCCCCNC(=O)OCCCCCCCCCCCCNC(=O)OC1CCN(C(=O)Oc2ccc(Oc3ccccc3)cc2)CC1    5000
CCCCCCNC(=O)OCCCCCCNC(=O)OC1CCN(C(=O)Oc2ccc(Oc3ccccc3)cc2)CC1    1780
CCCCCCN(CCCCCC)C(=O)OCCCCCCNC(=O)OC1CCN(C(=O)Oc2ccc(Oc3ccccc3)cc2)CC1    6410
O=C(NCCCCCCOC(=O)N1CCCCC1)OC1CCN(C(=O)Oc2ccc(Oc3ccccc3)cc2)CC1    2340

The record that follows has no IC50 shown yet.
Which value of IC50 has been reported for "O=C(NCCCCCCOC(=O)N(Cc1ccccc1)Cc1ccccc1)OC1CCN(C(=O)Oc2ccc(Oc3ccccc3)cc2)CC1" in the records? 1590

Data credit: patent US5952354A
